// data source = the RNAGym collection of RNA variant scans (doi:10.7554/elife.90254)

Measured self-cleavage values are reported for all entries that follow.
B1: LINE1-full (parent)
chain: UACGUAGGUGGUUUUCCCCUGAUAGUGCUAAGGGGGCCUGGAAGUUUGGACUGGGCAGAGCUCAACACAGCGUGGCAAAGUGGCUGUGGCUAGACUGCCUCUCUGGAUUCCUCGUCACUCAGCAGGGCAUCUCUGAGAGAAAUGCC

variants of: B1; assay: self-cleavage, relative activity (ratio to wild type); higher = more cleavage; in vitro, sequencing; the parent is a self-cleaving ribozyme
Response field accepts a number only; no unit should be typed.

changes: U15C A57G
self-cleavage: 1.06

Read off the recorded self-cleavage for G97A A121G
0.05

Read off the recorded self-cleavage for U81A C103A
1.98

Read off the recorded self-cleavage for C17U A59U
0.51

Read off the recorded self-cleavage for U14G A42U
0.76
